Measured Target: Vascular endothelial growth factor receptor 2 (Homo sapiens, UniProt P35968)
Sequence (P35968 whole entry): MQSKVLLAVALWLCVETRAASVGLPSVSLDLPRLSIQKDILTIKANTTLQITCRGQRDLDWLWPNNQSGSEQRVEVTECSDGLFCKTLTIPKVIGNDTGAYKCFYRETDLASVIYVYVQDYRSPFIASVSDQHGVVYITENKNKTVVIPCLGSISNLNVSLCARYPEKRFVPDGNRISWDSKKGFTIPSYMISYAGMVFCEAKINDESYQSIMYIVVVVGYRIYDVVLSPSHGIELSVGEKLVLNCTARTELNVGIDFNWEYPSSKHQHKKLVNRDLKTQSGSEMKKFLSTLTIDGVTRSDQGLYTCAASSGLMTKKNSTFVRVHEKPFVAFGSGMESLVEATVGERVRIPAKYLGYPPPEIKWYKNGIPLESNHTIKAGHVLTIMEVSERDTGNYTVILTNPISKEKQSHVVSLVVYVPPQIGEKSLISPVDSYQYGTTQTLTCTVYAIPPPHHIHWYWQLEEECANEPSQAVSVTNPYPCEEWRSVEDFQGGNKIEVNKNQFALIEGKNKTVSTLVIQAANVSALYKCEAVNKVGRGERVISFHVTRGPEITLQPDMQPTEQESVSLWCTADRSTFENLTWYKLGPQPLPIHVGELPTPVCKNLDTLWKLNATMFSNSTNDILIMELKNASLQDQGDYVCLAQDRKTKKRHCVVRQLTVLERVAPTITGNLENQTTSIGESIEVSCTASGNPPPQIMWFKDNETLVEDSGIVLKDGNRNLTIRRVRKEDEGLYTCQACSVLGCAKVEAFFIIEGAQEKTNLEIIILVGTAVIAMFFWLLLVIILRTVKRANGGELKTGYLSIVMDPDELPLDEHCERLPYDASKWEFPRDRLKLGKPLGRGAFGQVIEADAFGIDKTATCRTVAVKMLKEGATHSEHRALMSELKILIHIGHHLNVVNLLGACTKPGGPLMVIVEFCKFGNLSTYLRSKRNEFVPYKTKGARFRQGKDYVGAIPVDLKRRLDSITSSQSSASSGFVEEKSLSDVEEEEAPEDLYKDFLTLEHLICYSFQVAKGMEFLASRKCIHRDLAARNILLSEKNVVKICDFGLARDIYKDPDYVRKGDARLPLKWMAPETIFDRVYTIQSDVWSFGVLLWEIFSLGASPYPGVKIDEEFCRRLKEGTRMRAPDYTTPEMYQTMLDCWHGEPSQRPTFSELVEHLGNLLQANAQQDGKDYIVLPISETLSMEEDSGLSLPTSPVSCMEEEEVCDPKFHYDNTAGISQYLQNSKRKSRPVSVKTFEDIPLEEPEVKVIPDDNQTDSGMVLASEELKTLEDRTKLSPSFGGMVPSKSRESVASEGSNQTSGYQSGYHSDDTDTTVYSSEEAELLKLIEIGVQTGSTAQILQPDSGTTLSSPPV
Assay Metric: IC50 (nM)
# unit: nM | format: bare number

# query: IC50 | item Cc1cc(C)c2c(Nc3ncnc4c3sc3nc(C)cc(C)c34)csc2n1 | system: Vascular endothelial growth factor receptor 2 (Homo sapiens, UniProt P35968)
2600
